Catalogue of molecules with associated solubility kinetic
settings: buffer; pH 7.4; 200.0 µM
Only the number, expressed in µg/mL, is required.

smiles_structure=O=C(Cn1c(=O)oc2ccccc21)Nc1ccccc1C(F)(F)F unit_abbrev=µg/mL observed_result=10
smiles_structure=CC(C)[C@H](NC(=O)c1ccccc1)C(=O)NC1CCCCCCC1 unit_abbrev=µg/mL observed_result=1.8
smiles_structure=Cc1ccc(S(=O)(=O)N2CCN(C(=O)COC(=O)CNC(=O)c3ccc(C(C)(C)C)cc3)CC2)c(C)c1 unit_abbrev=µg/mL observed_result=16.5

// moving on: another record for solubility kinetic
Ask | Looking for the measured solubility kinetic of COc1ccccc1C(=O)CN1C(=O)NC2(CCCCCC2)C1=O , can you help?
Reply | 12.9
